Cited source: PubChem BioAssay (NCATS)

tested on: Zika virus NS2B-NS3 protease (unlinked complex); assay: Confirmatory screen GU AMC qHTS for Zika virus inhibitors (AID 1347153); conditions: Recombinant NS2B-NS3 protease, AMC substrate fluorescence; series mostly up to 111 µM; note: nearly all actives have a fitted effect of over 70% in size;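 for Potency: enzyme at 25 nM with substrate at 10 µM below its Km of 18.3 µM; potency is the fitted concentration of half-maximal effect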
Results filed as inconclusive are left out. Active and inactive are the calls of the source. Calls come from the whole dose curve; as a rule, active = well fitted inhibition curve with a large enough effect; inconclusive = small, poorly fitted or top-dose-only effect; inactive = flat fitted curve, though single readings scatter.

>  <Compound>
CCOC(=O)O[C@H](C)OC(=O)C1N2C(=O)[C@H](NC(=O)[C@H](N)c3ccccc3)C2SC1(C)C (stereo partly specified)

>  <Potency>
inactive

$$$$
>  <Compound>
O=C(O)COc1ccc(-c2nccc3c2C(=O)N(Cc2cccc(C(F)(F)F)c2)CC(COc2ccc(OC(F)(F)F)cc2)O3)cc1 (stereo unspecified)

>  <Potency>
22.1 µM (active)

$$$$
>  <Compound>
CC1(COc2ccc(C[C@H]3SC(=O)NC3=O)cc2)CCCCC1

>  <Potency>
21.5 µM (active)

$$$$
>  <Compound>
COc1cc(O)c2c(=O)cc(-c3ccc(OC)c(-c4c(O)cc(O)c5c(=O)cc(-c6ccc(O)cc6)oc45)c3)oc2c1

>  <Potency>
44.1 µM (active)

$$$$
>  <Compound>
O=C(Nc1ccc(Oc2ccccc2)cc1)O[C@@H]1CO[C@H]2[C@@H]1OC[C@@H]2NS(=O)(=O)c1ccc(Cl)cc1

>  <Potency>
inactive

$$$$
>  <Compound>
O=C(Nc1ccc(Oc2ccccc2)cc1)O[C@@H]1CO[C@H]2[C@@H]1OC[C@@H]2NS(=O)(=O)c1ccc2ccccc2c1

>  <Potency>
inactive

$$$$
